- Test name: Hemolytic activity in human Red blood cell assessed as hemolysis incubated for 1 hrs by microplate reader based analysis
- Type: toxicity
- Condition parameters: erythrocyte
Peptide text beside a SMILES is read from it.

{"Compound": "CC(C)C[C@H](NC(=O)[C@H](CCCCN)NC(=O)[C@H](CC(C)C)NC(=O)[C@H](CCCCN)NC(=O)[C@H](Cc1ccccc1)NC(=O)[C@@H]1CCCN1C(=O)[C@H](Cc1c[nH]c2ccccc12)NC(=O)[C@H](Cc1c[nH]c2ccccc12)NC(=O)[C@H](Cc1c[nH]c2ccccc12)NC(=O)[C@@H]1CCCN1C(=O)[C@H](Cc1ccccc1)NC(=O)[C@H](CCCCN)NC(=O)[C@H](CC(C)C)NC(=O)[C@H](CCCCN)NC(=O)[C@H](CC(C)C)NC(=O)[C@@H](N)CCCCN)C(=O)N[C@@H](CCCCN)C(N)=O (H-KLKLKFPWWWPFKLKLK-NH2)", "HC10 [µM]": 38.84}
{"Compound": "CC[C@H](C)[C@H](NC(=O)[C@H](CCCCN)NC(=O)[C@@H](NC(=O)[C@H](Cc1ccccc1)NC(=O)[C@@H]1CCCN1C(=O)[C@H](Cc1c[nH]c2ccccc12)NC(=O)[C@H](Cc1c[nH]c2ccccc12)NC(=O)[C@H](Cc1c[nH]c2ccccc12)NC(=O)[C@@H]1CCCN1C(=O)[C@H](Cc1ccccc1)NC(=O)[C@@H](NC(=O)[C@H](CCCCN)NC(=O)[C@@H](NC(=O)[C@@H](N)CCCCN)[C@@H](C)CC)[C@@H](C)CC)[C@@H](C)CC)C(=O)N[C@@H](CCCCN)C(N)=O (H-KIKIFPWWWPFIKIK-NH2)", "HC10 [µM]": 4.32}
